Field: MIC. Provide a value for each of the compounds that follow.
Test system: M. avium ssp. avium Chester CNCTC My 80/72
assay procedure: In vitro antimycobacterial activity, microdilution panel method (MIC)
Assay type: cell-based, Mycobacterium avium
condition info: Mycobacterium avium

Known MIC results, listed for orientation:
Enquiry: Fill in the blank: the reported MIC of O=C(Nc1ccc(C(=O)O)c(O)c1)c1cnc(Cl)cn1 is ____.
Return: > 100 µg/mL

Enquiry: Fill in the blank: the reported MIC of N#Cc1ccc(NC(=O)c2cnc(Cl)cn2)cc1 is ____.
Return: > 100 µg/mL

Enquiry: Fill in the blank: the reported MIC of O=C(Nc1ccc(I)cc1Cl)c1cnc(Cl)cn1 is ____.
Return: > 50 µg/mL

Enquiry: Fill in the blank: the reported MIC of O=C(Nc1ccc(Cl)c(Cl)c1)c1cnc(Cl)cn1 is ____.
Return: > 100 µg/mL

Enquiry: Fill in the blank: the reported MIC of Cc1ccc(Cl)c(NC(=O)c2cnc(Cl)cn2)c1 is ____.
Return: > 100 µg/mL

Enquiry: Fill in the blank: the reported MIC of CCc1ccc(NC(=O)c2cnc(Cl)cn2)cc1 is ____.
Return: > 100 µg/mL

Enquiry: Fill in the blank: the reported MIC of O=C(Nc1ccc(O)c(Cl)c1)c1cnc(Cl)cn1 is ____.
Return: 50 µg/mL

Enquiry: Fill in the blank: the reported MIC of O=C(Nc1cccc(F)c1)c1cnc(Cl)cn1 is ____.
Return: > 100 µg/mL

Below is a list of compounds. For each, state its recorded MIC.
1. N#Cc1cccc(NC(=O)c2cnc(Cl)cn2)c1
2. O=C(Nc1ccccc1O)c1cnc(Cl)cn1
3. O=C(Nc1cccc(C(F)(F)F)c1)c1cnc(Cl)cn1
4. O=C(Nc1ccc(C(F)(F)F)cc1)c1cnc(Cl)cn1

Return:
1: > 50 µg/mL; 2: > 100 µg/mL; 3: > 100 µg/mL; 4: > 100 µg/mL

Below is a list of compounds. For each, state its recorded MIC.
1. Cc1ccc(C)c(NC(=O)c2cnc(Cl)cn2)c1
2. COc1ccc(NC(=O)c2cnc(Cl)cn2)c(OC)c1
3. O=C(Nc1ccc(O)cc1)c1cnc(Cl)cn1
4. NC(=O)c1cnc(Cl)cn1 [Compound 5-Cl-PZA, 5-chloropyrazine-2-carboxamide, reference compound]
5. O=C(Nc1cc(Cl)ccc1O)c1cnc(Cl)cn1

Return:
1. > 100 µg/mL
2. > 50 µg/mL
3. > 100 µg/mL
4. > 100 µg/mL
5. 12.5 µg/mL

Below is a list of compounds. For each, state its recorded MIC.
1. Cc1ccc(F)cc1NC(=O)c1cnc(Cl)cn1
2. O=C(Nc1cc([N+](=O)[O-])ccc1O)c1cnc(Cl)cn1
3. O=C(Nc1cccc(Br)c1)c1cnc(Cl)cn1

Return:
> 100 µg/mL
50 µg/mL
> 100 µg/mL

----------
Tested on: M. tuberculosis H37Rv CNCTC My 331/88
assay procedure: In vitro antimycobacterial activity, microdilution panel method (MIC)
Assay type: cell-based, Mycobacterium tuberculosis
condition info: M. tuberculosis H37Rv; primary test, dilution scale 100–[…]; Šula's medium pH 5.6
measured attribute: Antimycobacterial activity MIC, M. tbc

Known Antimycobacterial activity MIC, M. tbc results, listed for orientation:
Enquiry: Fill in the blank: the reported Antimycobacterial activity MIC, M. tbc of O=C(Nc1cccc(Cl)c1)c1cnc(Cl)cn1 [Compound 13] is ____.
Return: 6.25 µg/mL

Enquiry: Fill in the blank: the reported Antimycobacterial activity MIC, M. tbc of O=C(Nc1cccc([N+](=O)[O-])c1)c1cnc(Cl)cn1 [Compound 25] is ____.
Return: 3.13 µg/mL

Enquiry: Fill in the blank: the reported Antimycobacterial activity MIC, M. tbc of O=C(Nc1ccccc1Cl)c1cnc(Cl)cn1 [Compound 12] is ____.
Return: 3.13 µg/mL

Enquiry: Fill in the blank: the reported Antimycobacterial activity MIC, M. tbc of O=C(Nc1ccc(Br)cc1)c1cnc(Cl)cn1 [Compound 17] is ____.
Return: 3.13 µg/mL

Pending compound:
Enquiry: Fill in the blank: the reported Antimycobacterial activity MIC, M. tbc of O=C(Nc1ccccc1F)c1cnc(Cl)cn1 [Compound 9] is ____.
Return: 6.25 µg/mL

----------
Field: Cytotoxicity SI. Provide a value for each of the compounds that follow.
Test system: HepG2 cells
condition info: SI calculated for M. tbc as IC50 (HepG2)/MIC (in μM) using the lower MIC values (Table 1)

Known Cytotoxicity SI results, listed for orientation:
Enquiry: Fill in the blank: the reported Cytotoxicity SI of O=C(Nc1cc(Cl)ccc1O)c1cnc(Cl)cn1 is ____.
Return: 7.39

Enquiry: Fill in the blank: the reported Cytotoxicity SI of O=C(Nc1cccc(O)c1)c1cnc(Cl)cn1 is ____.
Return: 1.28

Enquiry: Fill in the blank: the reported Cytotoxicity SI of O=C(Nc1cccc([N+](=O)[O-])c1)c1cnc(Cl)cn1 is ____.
Return: 2.91

Enquiry: Fill in the blank: the reported Cytotoxicity SI of CCc1ccc(NC(=O)c2cnc(Cl)cn2)cc1 is ____.
Return: 2.41

Pending compound:
Enquiry: Fill in the blank: the reported Cytotoxicity SI of O=C(Nc1ccc(C(F)(F)F)cc1)c1cnc(Cl)cn1 is ____.
Return: 1.64

----------
Field: IC50. Provide a value for each of the compounds that follow.
Test system: HepG2 cells
condition info: read-out: Cytotoxicity IC50; HepG2 cells, 24 h incubation (Table 1)
Give bare numbers, in µM.

Enquiry: Fill in the blank: the reported IC50 of O=C(Nc1cccc([N+](=O)[O-])c1)c1cnc(Cl)cn1 is ____.
Return: 32.7

Pending compound:
Enquiry: Fill in the blank: the reported IC50 of O=C(Nc1ccccc1Cl)c1cnc(Cl)cn1 is ____.
Return: 6.72

----------
Field: pIC50. Provide a value for each of the molecules that follow.
assay procedure: in vitro
condition info: human
Answers are plain numbers, as −log10 of the molar value.

Known pIC50 results, listed for orientation:
Enquiry: Fill in the blank: the reported pIC50 of O=C(Nc1cccc(C(F)(F)F)c1)c1cnc(Cl)cn1 is ____.
Return: 4.38

Enquiry: Fill in the blank: the reported pIC50 of O=C(Nc1ccc(O)c(Cl)c1)c1cnc(Cl)cn1 is ____.
Return: 4.89

Enquiry: Fill in the blank: the reported pIC50 of O=C(Nc1ccc(O)cc1)c1cnc(Cl)cn1 is ____.
Return: 4.16

Enquiry: Fill in the blank: the reported pIC50 of Cc1ccc(Cl)c(NC(=O)c2cnc(Cl)cn2)c1 is ____.
Return: 4.80

Enquiry: Fill in the blank: the reported pIC50 of CC(C)c1ccc(NC(=O)c2cnc(Cl)cn2)cc1 is ____.
Return: 4.84

Below is a list of molecules. For each, state its recorded pIC50.
1. O=C(Nc1cccc(O)c1)c1cnc(Cl)cn1
2. O=C(Nc1ccc(Cl)c(Cl)c1)c1cnc(Cl)cn1
3. Cc1ccc(C)c(NC(=O)c2cnc(Cl)cn2)c1
4. O=C(Nc1ccccc1O)c1cnc(Cl)cn1

Return:
[4.49, 5.04, 4.93, 4.52]

Below is a list of molecules. For each, state its recorded pIC50.
1. CCc1ccc(NC(=O)c2cnc(Cl)cn2)cc1
2. O=C(Nc1cc(Cl)ccc1O)c1cnc(Cl)cn1
3. O=C(Nc1ccc(C(F)(F)F)cc1)c1cnc(Cl)cn1
4. O=C(Nc1cc([N+](=O)[O-])ccc1O)c1cnc(Cl)cn1
5. NC(=O)c1cnc(Cl)cn1 [Compound 5-Cl-PZA, 5-chloropyrazine-2-carboxamide, reference compound]

Return:
1. 5.14
2. 4.39
3. 5.07
4. 5.82
5. 2.80

----------
Tested on: HepG2 cells
condition info: SI calculated for M. tbc as IC50 (HepG2)/MIC (in μM) using the lower MIC values (Table 1)
measured attribute: Cytotoxicity SI

Known Cytotoxicity SI results, listed for orientation:
Enquiry: Fill in the blank: the reported Cytotoxicity SI of O=C(Nc1cccc(C(F)(F)F)c1)c1cnc(Cl)cn1 is ____.
Return: 3.99

Enquiry: Fill in the blank: the reported Cytotoxicity SI of O=C(Nc1ccccc1Cl)c1cnc(Cl)cn1 is ____.
Return: 0.58

Enquiry: Fill in the blank: the reported Cytotoxicity SI of Cc1ccc(Cl)c(NC(=O)c2cnc(Cl)cn2)c1 is ____.
Return: 2.86

Below is a list of compounds. For each, state its recorded Cytotoxicity SI.
1. O=C(Nc1ccc(Cl)c(Cl)c1)c1cnc(Cl)cn1
2. O=C(Nc1cc([N+](=O)[O-])ccc1O)c1cnc(Cl)cn1
3. CC(C)c1ccc(NC(=O)c2cnc(Cl)cn2)cc1
4. O=C(Nc1ccccc1O)c1cnc(Cl)cn1
5. O=C(Nc1ccc(O)cc1)c1cnc(Cl)cn1
6. O=C(Nc1ccc(O)c(Cl)c1)c1cnc(Cl)cn1
7. Cc1ccc(C)c(NC(=O)c2cnc(Cl)cn2)c1

Return:
[0.88, 0.29, 2.55, 2.39, 5.47, 1.17, 1.96]
